Biological target: full length SGK1 (Homo sapiens, UniProt O00141)
Construct: 125 μM full length SGK1 (Life Technologies Part #PR7358A); purchased Life Technologies PR7358A
Assay: SGK1 inhibition Assay A (Caliper LabChip electrophoretic separation of fluorescent peptide substrate and phosphorylated product)
Format: biochemical
Conditions: Assay A; 20 μM ATP, 40 min incubation; read-out: SGK1 IC50
pIC50: −log10 of the molar value.
// label 0 strictly below 7 in pIC50; label 1 otherwise

{"itemSmiles": "CC(=O)N1CC=C(c2cc(N3CCC[C@@H](NC(=O)c4cccc(OCCN(C)C)n4)C3)c3c(N)ncnn23)C1", "labelClass": "label 1"}
{"itemSmiles": "CC(=O)N1CC=C(c2cc(N3CCC[C@@H](NC(=O)c4sc(-c5ccnc(C(F)F)c5)cc4OCCN(C)C)C3)c3c(N)ncnn23)C1", "labelClass": "label 1"}
{"itemSmiles": "CS(=O)(=O)c1ccc(-c2c(Cl)c(N3CCC[C@@H](NC(=O)c4ccncc4)C3)c3c(N)ncnn23)cc1", "labelClass": "label 0"}
{"itemSmiles": "COC(=O)N1CC=C(c2cc(N3CCC[C@@H](NC(=O)c4sc(Cl)cc4OCC4CNC4)C3)c3c(N)ncnn23)C1", "labelClass": "label 1"}
{"itemSmiles": "CS(=O)(=O)c1ccc(-c2cc(N3CCC[C@@H](NC(=O)c4ccc(Cl)s4)C3)c3c(N)ncnn23)cn1", "labelClass": "label 1"}

* * *

Below, each of the compounds is paired with its reported pIC50 value.
Biological target: full length SGK1 (Homo sapiens, UniProt O00141)
Construct: 125 μM full length SGK1 (Life Technologies Part #PR7358A); purchased Life Technologies PR7358A
Assay: SGK1 inhibition Assay A (Caliper LabChip electrophoretic separation of fluorescent peptide substrate and phosphorylated product)
Assay type: biochemical
Conditions: Assay A; 20 μM ATP, 40 min incubation; read-out: SGK1 IC50
pIC50: −log10 of the molar value. Where a name gives a salt, the structure may show the parent alone.

{"compound": "NC(=O)c1ccc(-c2cc(N3CCC[C@@H](NC(=O)c4sc(Cl)cc4OCC4CCNCC4)C3)c3c(N)ncnn23)cn1 [Example 644]", "pIC50": 9.40}
{"compound": "Nc1ncnn2c(-c3ccc(OCC(F)F)nc3)cc(N3CCC[C@@H](NC(=O)c4ccc(Cl)s4)C3)c12 [Example 534]", "pIC50": 8.10}
{"compound": "CC(=O)NCCC(=O)N1CC=C(c2cc(N3CCC[C@@H](NC(=O)c4ccc(Cl)s4)C3)c3c(N)ncnn23)C1 [Example 915]", "pIC50": 8.00}
{"compound": "COc1cc(-c2cc(N3CCC[C@@H](NC(=O)c4ccc(Cl)s4)C3)c3c(N)ncnn23)ccc1C#N [Example 222, TFA]", "pIC50": 7.37}
{"compound": "Nc1ncnn2c(-c3ccc(-n4cnnn4)c(F)c3)cc(N3CCC[C@@H](NC(=O)c4ccc(Cl)s4)C3)c12 [Example 245]", "pIC50": 9.00}
{"compound": "CC(=O)N1CC=C(c2cc(N3CCC[C@@H](NC(=O)c4ccncn4)C3)c3c(N)ncnn23)C1 [Example 740]", "pIC50": 6.62}
{"compound": "CN1CCN(c2cccc(C(=O)N[C@@H]3CCCN(c4cc(-c5ccn(C)c(=O)c5)n5ncnc(N)c45)C3)n2)CC1 [Example 802]", "pIC50": 6.63}
{"compound": "CC(=O)N1CC=C(c2cc(N3CCC[C@@H](NC(=O)c4sc(C(F)F)cc4C4CCNC4)C3)c3c(N)ncnn23)C1 (single isomer, unassigned) [Example 398F]", "pIC50": 6.89}
{"compound": "CS(=O)(=O)c1ccc(-c2cc(N3CCC[C@@H](NC(=O)c4ccncn4)C3)c3c(N)ncnn23)cc1 [Example 31]", "pIC50": 6.95}
{"compound": "Cc1cc(-c2cc(N3CCC[C@@H](NC(=O)c4ccc(Cl)s4)C3)c3c(N)ncnn23)ccn1 [Example 132]", "pIC50": 8.40}
{"compound": "COc1ccc2[nH]c(C(=O)N[C@@H]3CCCN(c4cc(C5=CCN(C(C)=O)C5)n5ncnc(N)c45)C3)cc2c1 [Example 491]", "pIC50": 8.22}
{"compound": "CC(=O)N1CC=C(c2cc(N3CCC[C@@H](NC(=O)c4sc(Cl)cc4OCCNC(=O)C(F)F)C3)c3c(N)ncnn23)C1 [Example 329]", "pIC50": 8.52}
{"compound": "Nc1ncnn2c(-c3ccnc(C(F)F)c3)cc(N3CCC[C@@H](NC(=O)c4sc(Cl)cc4O)C3)c12 [Example 481]", "pIC50": 7.80}
{"compound": "CC(=O)N1CC=C(c2cc(N3CCC[C@@H](NC(=O)c4cccc(N5CC(=O)NC(C)C5)n4)C3)c3c(N)ncnn23)C1 (some centres unmarked) [Example 775, TFA]", "pIC50": 8.05}

* * *

Below, each of the compounds is paired with its reported pIC50 value.
Target: full length SGK1 (Homo sapiens)
Construct: 125 μM full length SGK1 (Life Technologies Part #PR7358A); purchased Life Technologies PR7358A
Sequence (O00141 1-431): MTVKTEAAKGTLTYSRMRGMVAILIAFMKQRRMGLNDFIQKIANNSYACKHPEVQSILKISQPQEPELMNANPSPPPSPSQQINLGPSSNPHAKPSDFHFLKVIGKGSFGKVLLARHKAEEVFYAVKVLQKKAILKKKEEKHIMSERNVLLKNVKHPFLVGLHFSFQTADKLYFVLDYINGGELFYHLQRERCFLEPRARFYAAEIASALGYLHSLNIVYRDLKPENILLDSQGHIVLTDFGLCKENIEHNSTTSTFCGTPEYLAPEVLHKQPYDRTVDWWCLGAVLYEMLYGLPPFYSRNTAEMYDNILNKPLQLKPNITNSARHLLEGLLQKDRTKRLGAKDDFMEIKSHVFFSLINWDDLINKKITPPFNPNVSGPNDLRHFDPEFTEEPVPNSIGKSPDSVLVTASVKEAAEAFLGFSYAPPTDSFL
Assay: SGK1 inhibition Assay A (Caliper LabChip electrophoretic separation of fluorescent peptide substrate and phosphorylated product)
Type: biochemical
Conditions: Assay A; 20 μM ATP, 40 min incubation; read-out: SGK1 IC50
pIC50: −log10 of the molar value. Where a name gives a salt, the structure may show the parent alone.

{"compound": "N#Cc1ccc(-c2cc(N3CCC[C@@H](NC(=O)c4nc5ccccc5s4)C3)c3c(N)ncnn23)cn1 [Example 647]", "pIC50": 7.20}
{"compound": "CC(=O)N1CC=C(c2cc(N3CCCC(NC(=O)c4sc(Cl)cc4OC4CC5CC4CN5C(C)C)C3)c3c(N)ncnn23)C1 (single isomer, unassigned) [Example 610]", "pIC50": 7.96}
{"compound": "CC(=O)NCCOc1cc(C(F)F)sc1C(=O)N[C@@H]1CCCN(c2cc(-c3cnc(C#N)c(C)c3)n3ncnc(N)c23)C1 [Example 426]", "pIC50": 7.52}
{"compound": "COC(=O)N1CC=C(c2cc(N3CCC[C@@H](NC(=O)c4sc(Cl)cc4OC4CCN(CC(F)F)CC4)C3)c3c(N)ncnn23)C1 [Example 566]", "pIC50": 7.92}
{"compound": "Nc1ncnn2c(C3=CCN(C(=O)[C@H]4CCCCN4)C3)cc(N3CCC[C@@H](NC(=O)c4ccc(Cl)s4)C3)c12 [Example 892, TFA]", "pIC50": 7.82}
{"compound": "CN1CCN(c2cccc(C(=O)N[C@@H]3CCCN(c4cc(-c5ccc(=O)[nH]c5)n5ncnc(N)c45)C3)n2)CC1 [Example 798]", "pIC50": 7.68}

* * *

Target: full length SGK1 (Homo sapiens, UniProt O00141)
Construct: 125 μM full length SGK1 (Life Technologies Part #PR7358A); purchased Life Technologies PR7358A
Sequence (O00141 1-431): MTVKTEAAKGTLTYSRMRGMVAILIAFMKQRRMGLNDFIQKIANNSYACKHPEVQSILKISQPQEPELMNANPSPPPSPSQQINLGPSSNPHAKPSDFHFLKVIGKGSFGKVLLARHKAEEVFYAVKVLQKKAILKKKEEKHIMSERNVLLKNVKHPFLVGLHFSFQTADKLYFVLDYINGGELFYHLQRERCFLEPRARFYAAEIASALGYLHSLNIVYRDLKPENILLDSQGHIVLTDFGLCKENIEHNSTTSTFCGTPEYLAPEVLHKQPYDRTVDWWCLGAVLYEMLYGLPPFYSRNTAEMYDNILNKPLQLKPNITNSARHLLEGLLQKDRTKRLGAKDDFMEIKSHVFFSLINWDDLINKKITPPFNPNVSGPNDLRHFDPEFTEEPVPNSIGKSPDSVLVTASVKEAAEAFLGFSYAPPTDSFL
Assay: SGK1 inhibition Assay A (Caliper LabChip electrophoretic separation of fluorescent peptide substrate and phosphorylated product)
Format: biochemical
Conditions: SGK1 IC50, Assay A; 20 μM ATP, 40 min incubation
pIC50: −log10 of the molar value.

{"itemSmiles": "CC(=O)N1CC=C(c2cc(N3CCC[C@@H](NC(=O)c4ccc(S(=O)(=O)F)cc4)C3)c3c(N)ncnn23)C1", "pIC50": 7.49}
{"itemSmiles": "CC(=O)N1CC=C(c2cc(N3CCC[C@@H](NC(=O)c4cccc(S(=O)(=O)F)c4)C3)c3c(N)ncnn23)C1", "pIC50": 6.90}
